- System: tet-on competent MLL/AF9+Nras AML
- test.protocol: Pooled negative selection RNAi screening (deep sequencing)
- Format: cell-based, mouse
- condition.description: deep sequencing reads, On Dox compared to T0
List of Fold depletion in AML values.
Reply numerically in Fold, unit not repeated.

{"columns": ["molecule", "value.unit", "Fold depletion in AML"],
 "data": [
  ["Gas1.2159: shRNA, SEQ ID NO: 128 (nucleic acid) TGCTGTTGACAGTGAGCGACCCGAAATTACAACTGCATTATAGTGAAGCCACAGATGTATAATGCAGTTGTAATTTCGGGGTGCCTACTGCCTCGGA", "Fold", 132.34]
]}

Here's the next entry for you.
For Kcnh7.2642: shRNA, SEQ ID NO: 134 (nucleic acid) TGCTGTTGACAGTGAGCGCATGGTTCATCTTTATGCCAAATAGTGAAGCCACAGATGTATTTGGCATAAAGATGAACCATTTGCCTACTGCCTCGGA , write its Fold depletion in AML.
10.58

Value source: patent US8895526B2
